Assay: in vivo
Conditions: rat, sc, 10 umol/kg
observationType: half-life

Query CN(C)CCCC1(c2ccc(F)cc2)OCc2cc(C#N)ccc21 (stereo not shown) [citalopram] yields half-life of ~2 h

----------
Test: in vivo
Settings: rat, sc, 100 nmol/kg
observationType: half-life

Memo: `O=C(c1ccc(F)cc1)C1CCN(CCn2c(=O)[nH]c3ccccc3c2=O)CC1` , reported half-life: ~1.5 h
